Hello, the source for this data is PubChem BioAssay AID1159580, in case you need it.

We begin with a simple list: items and their reported normalized growth.
method: chemical genetic growth profiling, strain panel (AID 1159580);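 also: tested at 20 µM; growth read once vehicle control cultures reached saturation at 30 °C; 1 = growth at the plate median or of vehicle wells; lower values mean less growth of the strain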
conditions-used: S. cerevisiae deletion strains, growth OD, locus YHR142W, strain chs7, active compounds read low
Hit rate of the full screen: of about 5,500 compounds, about 2,000 (36%) were called active. About 18% were inconclusive and are not listed. The list shows a part of the results.
readout-kind: normalized growth

# molecule, readout-kind, numeric-result
data = [
    ("CCCC(=O)Nc1ccc(OCC(O)CNC(C)C)c(C(C)=O)c1 (stereo not drawn)", "normalized growth", 1.04),
    ("CC(=O)Nc1c(I)cc(I)c(C(=O)O)c1I", "normalized growth", 0.987),
    ("CCCCN(CC)c1c([N+](=O)[O-])cc(C(F)(F)F)cc1[N+](=O)[O-]", "normalized growth", 1.02),
    ("O=C(O)CCC(=O)OC[C@@H](NC(=O)C(Cl)Cl)[C@H](O)c1ccc([N+](=O)[O-])cc1", "normalized growth", 0.926),
    ("O=C(/C=C/c1ccccc1)c1ccc(O)cc1O", "normalized growth", 0.0687),
    ("OC[C@H]1O[C@@H](Oc2ccc(O)cc2)[C@H](O)[C@@H](O)[C@@H]1O", "normalized growth", 1.01),
    ("CC[C@H]1OC(=O)[C@H](C)[C@@H](O[C@H]2C[C@@](C)(OC)[C@@H](O)[C@H](C)O2)[C@H](C)[C@@H](O[C@@H]2O[C@H](C)C[C@H](N(C)C)[C@H]2O)[C@](C)(O)C[C@@H](C)/C(=N/OCOCCOC)[C@H](C)[C@@H](O)[C@]1(C)O", "normalized growth", 1.02),
    ("CC(C)c1cc2c(c(O)c1O)[C@@]1(C(=O)O)CCCC(C)(C)C1CC2 (stereo partly drawn)", "normalized growth", 0.969),
    ("NS(=O)(=O)c1cc2c(cc1Cl)NCNS2(=O)=O", "normalized growth", 0.994),
    ("O=C(/C=C/c1ccc(O)cc1)c1ccc(O)cc1O", "normalized growth", 0.985),
    ("O=C(O)c1cc(=O)c2ccccc2[nH]1", "normalized growth", 0.99),
    ("O=C(/C=C/c1ccc(O)cc1)c1ccccc1O", "normalized growth", 0.14),
    ("C=C[C@H]1CN2CC[C@H]1C[C@H]2[C@H](O)c1ccnc2ccccc12", "normalized growth", 1),
]
